assay.details: Biodistribution studies of 11C tracers
Type: in vivo, Wistar rats
experimental.setup: 30 min p.i.

{"molecule": "[11CH3]Oc1c(F)ccc(F)c1C1CCN(c2ccn3c(CC4CC4)nnc3c2C(F)(F)F)CC1 [[^11C]B-3]", "% ID Cerebellum, % ID": 0.142}
{"molecule": "[11CH3]Oc1cccc(F)c1C1CCN(c2ccn3c(CC4CC4)nnc3c2Cl)CC1 [[^11C]B-6]", "% ID Cerebellum, % ID": 0.201}
{"molecule": "[11CH3]Oc1c(F)ccc(F)c1C1CCN(c2ccn3c(CC4CC4)nnc3c2Cl)CC1 [[^11C]B-2]", "% ID Cerebellum, % ID": 0.291}
{"molecule": "[11CH3]Oc1ccc(F)cc1C1CCN(c2ccn3c(CC4CC4)nnc3c2Cl)CC1 [[^11C]B-4]", "% ID Cerebellum, % ID": 0.191}
{"molecule": "[11CH3]Oc1ccc(F)c(F)c1C1CCN(c2ccn3c(CC4CC4)nnc3c2Cl)CC1 [[^11C]B-10]", "% ID Cerebellum, % ID": 0.152}
{"molecule": "[11CH3]Oc1cc(F)cc(F)c1C1CCN(c2ccn3c(CC4CC4)nnc3c2Cl)CC1 [[^11C]B-7]", "% ID Cerebellum, % ID": 0.198}
